viability at 28.5 h, 10 µM reference
# test details: in vitro
# run parameters: human, hela cells, % viability

Q: Fill in the blank: the reported viability at 28.5 h, 10 µM of `O=C(COc1ccc2c3c(c(=O)oc2c1)CCC3)Nc1ccc(S(=O)(=O)N2CCOCC2)cc1` is ____.
Ans: 82.4%

Q: Fill in the blank: the reported viability at 28.5 h, 10 µM of CCC(Oc1ccccc1)C(=O)Nc1cc(C)on1 (stereo not drawn) is ____.
Ans: 101%

Q: Fill in the blank: the reported viability at 28.5 h, 10 µM of `CC(=O)Nc1ccc(S(N)(=O)=O)c2ccccc12` is ____.
Ans: 83.5%

Q: Fill in the blank: the reported viability at 28.5 h, 10 µM of CCOc1ccc(-c2cncc(NC3CCC(O)CC3)n2)cc1 (stereo not drawn) is ____.
Ans: 88.9%

Q: Fill in the blank: the reported viability at 28.5 h, 10 µM of `O=C(O)CCCC(=O)Nc1ccccc1-c1ccccc1` is ____.
Ans: 94.9%

Q: Fill in the blank: the reported viability at 28.5 h, 10 µM of `NS(=O)(=O)c1ccc(CCNC(=O)CN2C(=O)c3ccccc3C2=O)cc1` is ____.
Ans: 96%

Q: Fill in the blank: the reported viability at 28.5 h, 10 µM of `COc1ccc(Cl)cc1NC(=O)CCCn1cnc([N+](=O)[O-])n1` is ____.
Ans: 83.2%

Q: Fill in the blank: the reported viability at 28.5 h, 10 µM of `Cc1cc(Cc2ccccc2F)cc(C2CCN(C(=O)c3nc4ccc(F)cc4[nH]3)CC2)n1` is ____.
Ans: 120%

Could you now look at the following compound, please?
Q: Fill in the blank: the reported viability at 28.5 h, 10 µM of COc1c(Br)cc2c(cc(C)n2-c2ccccc2)c1OCC(O)CNC(C)C (stereo not drawn) is ____.
Ans: 93.8%

---

# test details: in vitro
# run parameters: human, hela cells, % viability
readout kind: viability at 28.5 h, 10 µM (%)
# value in %; strip the unit string

Take a look at these entries with their results.
Q: Fill in the blank: the reported viability at 28.5 h, 10 µM of Cc1ccc2[nH]c3c(c2c1)CCNC31CCN(C(=O)Nc2c(C)noc2C)CC1 [CBK047071] is ____.
Ans: 83.1

Q: Fill in the blank: the reported viability at 28.5 h, 10 µM of Cc1nc(C)n(CC2CCCN(Cc3ccccc3C#N)C2)n1 (stereo not shown) [CBK305085] is ____.
Ans: 98.4

Q: Fill in the blank: the reported viability at 28.5 h, 10 µM of O=c1[nH]ccn1CCNc1ccc(-c2ccccc2Oc2ccccc2)cn1 [CBK037665] is ____.
Ans: 103

Q: Fill in the blank: the reported viability at 28.5 h, 10 µM of CC1(C)[C@H](Cc2cc(CO)on2)C[C@@H]1NC(=O)C1CCCCC1 [CBK289235] is ____.
Ans: 93.1

Q: Fill in the blank: the reported viability at 28.5 h, 10 µM of CC(C)c1cc2cc3ccc(=O)oc3cc2o1 [CBK033944] is ____.
Ans: 93.6

Q: Fill in the blank: the reported viability at 28.5 h, 10 µM of CCn1ncc(CN2CCCCCC2c2cc(C)no2)c1C (stereo not shown) [CBK283008] is ____.
Ans: 92.9

Q: Fill in the blank: the reported viability at 28.5 h, 10 µM of CC(C)[C@@H](CO)Nc1nc(-c2cc(C(F)(F)F)cc(C(F)(F)F)c2)cn2ccnc12 [CBK037496] is ____.
Ans: 84.9

Q: Fill in the blank: the reported viability at 28.5 h, 10 µM of CCCS(=O)(=O)N1CCC(C(=O)NCc2ccc(Cl)cc2Cl)CC1 [CBK305559] is ____.
Ans: 102

Further cases:
Q: Fill in the blank: the reported viability at 28.5 h, 10 µM of CN1CCN(C(=O)c2ccsc2NS(=O)(=O)Cc2ccccc2)CC1 [CBK042266] is ____.
Ans: 97.5

Q: Fill in the blank: the reported viability at 28.5 h, 10 µM of CC(C)C(=O)N[C@@H](C)Cn1c(C(F)(F)F)cc2cccnc21 [CBK283231] is ____.
Ans: 95.6

Q: Fill in the blank: the reported viability at 28.5 h, 10 µM of O=C(O)c1cccc(-n2c(S)nnc2-c2ccc3ccccc3n2)c1 [CBK265810] is ____.
Ans: 103

Q: Fill in the blank: the reported viability at 28.5 h, 10 µM of O=C(O)CCCN1C(=O)C(O)=C(C(=O)c2ccc([N+](=O)[O-])cc2)C1c1ccccc1F (stereo not shown) [CBK263810] is ____.
Ans: 97.8

Q: Fill in the blank: the reported viability at 28.5 h, 10 µM of CCC(CC)C(=O)N1C[C@H]2CCc3nnc(-c4ccccc4)n3[C@H]2C1 [CBK283439] is ____.
Ans: 86.7

Q: Fill in the blank: the reported viability at 28.5 h, 10 µM of N=c1n(CC(=O)O)c2ccccc2n1Cc1ccccc1Cl [CBK262917B] is ____.
Ans: 90.3

Q: Fill in the blank: the reported viability at 28.5 h, 10 µM of O=C(NC1(c2ccc(Cl)cc2)CC1)C1CCS(=O)(=O)C1 (stereo not shown) [CBK282765] is ____.
Ans: 75.3

Q: Fill in the blank: the reported viability at 28.5 h, 10 µM of CCN1CCN(C(=O)CN(C)S(=O)(=O)c2ccc(Cl)cc2)CC1 [CBK267218] is ____.
Ans: 100

Q: Fill in the blank: the reported viability at 28.5 h, 10 µM of NC(=O)C1(N2CCCCC2)CCN(C(=S)Nc2ccc(Oc3ccccc3)cc2)CC1 [CBK265862] is ____.
Ans: 84.7

Q: Fill in the blank: the reported viability at 28.5 h, 10 µM of COc1ccc2nc3cc(Cl)ccc3c(NCCO)c2c1 [CBK011939] is ____.
Ans: 43.8

Q: Fill in the blank: the reported viability at 28.5 h, 10 µM of N#CCCN(C(=O)NCc1ccc2c(c1)OCO2)C1CCCCC1 [CBK156351] is ____.
Ans: 98.7

---

# test details: in vitro
# run parameters: human, hela cells, % viability
readout kind: viability at 28.5 h, 10 µM (%)
# value in %; strip the unit string

Q: Fill in the blank: the reported viability at 28.5 h, 10 µM of CCCS(=O)(=O)N1CCN(S(=O)(=O)c2ccc(NC(C)=O)cc2)CC1 [CBK264288] is ____.
Ans: 96.6

Q: Fill in the blank: the reported viability at 28.5 h, 10 µM of COc1ccc(C(NC(=O)Cc2ccc(-n3nnnc3C)cc2)c2ccccc2)cc1 (stereo not shown) [CBK285537] is ____.
Ans: 92.8

Q: Fill in the blank: the reported viability at 28.5 h, 10 µM of C=CCNc1nc(N)c(/C(N)=N\C#N)s1 [CBK019028] is ____.
Ans: 99.3

Further cases:
Q: Fill in the blank: the reported viability at 28.5 h, 10 µM of O=C(Nc1ccc2c(c1)OCO2)Nc1c(Br)cnc2ncccc12 [CBK105596] is ____.
Ans: 93.4

Q: Fill in the blank: the reported viability at 28.5 h, 10 µM of CN(C)CCN(C)c1nc(-c2ccc3c(c2)OCO3)cn2ccnc12 [CBK066381] is ____.
Ans: 110

---

viability at 28.5 h, 10 µM reference
# test details: in vitro
# run parameters: human, hela cells, % viability
# value in %; strip the unit string

Q: Fill in the blank: the reported viability at 28.5 h, 10 µM of O=C(CC(CN1CCN(Cc2cccnc2)CC1)C(=O)O)Nc1ccc(Cl)cc1 (centres unmarked) is ____.
Ans: 91.5

Could you now look at the following molecule, please?
Q: Fill in the blank: the reported viability at 28.5 h, 10 µM of `Cc1ccc(NC(=O)CN2C(=O)S/C(=C\c3cc(C)n(-c4ccc(C(=O)O)cc4)c3C)C2=O)cc1` is ____.
Ans: 91.6

---

# test details: in vitro
# run parameters: human, hela cells, % viability
viability at 28.5 h, 10 µM reference
# value in %; strip the unit string

Q: Fill in the blank: the reported viability at 28.5 h, 10 µM of O=C(Cn1cnc2c(F)cc(Br)cc2c1=O)N1CCOC2CCCCC21 (stereo not shown) [CBK305229] is ____.
Ans: 89.2

Q: Fill in the blank: the reported viability at 28.5 h, 10 µM of O=C(O)/C=C/C(=O)NNC(=O)c1ccccc1O [CBK261789] is ____.
Ans: 97.4

Q: Fill in the blank: the reported viability at 28.5 h, 10 µM of COc1cc2c(cc1OC)CN(S(=O)(=O)c1cc(C(=O)O)ccc1Cl)CC2 [CBK296923] is ____.
Ans: 96

Q: Fill in the blank: the reported viability at 28.5 h, 10 µM of CN(C)C(=O)c1ccc(-c2ccc3c(c2)OC(C2CCN(C(=O)OCc4ccccc4)CC2)OC3)cc1 (stereo not shown) [CBK144649] is ____.
Ans: 85.5

Q: Fill in the blank: the reported viability at 28.5 h, 10 µM of COc1cc2c(cc1OC)CN(CC1CCCCC1)CC2 [CBK138321] is ____.
Ans: 101

Further cases:
Q: Fill in the blank: the reported viability at 28.5 h, 10 µM of COc1ccc([C@@]23CC[C@@H](NC(=O)Nc4ccnc5ccccc45)C[C@@H]2N(C)CC3)cc1OC [CBK045699] is ____.
Ans: 100

Q: Fill in the blank: the reported viability at 28.5 h, 10 µM of O=C(CSc1ccc(Cl)cc1)N1CCN(c2ccc([N+](=O)[O-])c(N3CCOCC3)c2)CC1 [CBK269670] is ____.
Ans: 85.3

Q: Fill in the blank: the reported viability at 28.5 h, 10 µM of Cc1cc(C)c2c(N)c(C(=O)O)sc2n1 [CBK131868] is ____.
Ans: 87.8

Q: Fill in the blank: the reported viability at 28.5 h, 10 µM of Cc1nc(C2CCCN(C(=O)CCc3ccno3)C2)c2sccn12 (stereo not shown) [CBK285237] is ____.
Ans: 87.5

Q: Fill in the blank: the reported viability at 28.5 h, 10 µM of O=C1NCC2(CCN(C(=O)c3cccs3)CC2)Oc2ccccc21 [CBK282917] is ____.
Ans: 100

Q: Fill in the blank: the reported viability at 28.5 h, 10 µM of CCCOc1ccc(C(N)CC(=O)O)cc1 (stereo not shown) [CBK261360] is ____.
Ans: 93.5

Q: Fill in the blank: the reported viability at 28.5 h, 10 µM of COc1cc(Nc2cncc(-c3ccc(O)cc3)n2)c(Cl)cc1C(=O)NCC1CCCO1 (stereo not shown) [CBK126468] is ____.
Ans: 100

Q: Fill in the blank: the reported viability at 28.5 h, 10 µM of CCn1cc(-c2cncn2CCN(C)C2CCCC2)cn1 [CBK281551] is ____.
Ans: 90.7

Q: Fill in the blank: the reported viability at 28.5 h, 10 µM of COc1ccccc1/C=C1/S/C(=N/Cc2ccccc2)N(Cc2ccccc2)C1=O [CBK262234] is ____.
Ans: 99.3

Q: Fill in the blank: the reported viability at 28.5 h, 10 µM of Cc1ccc(S(=O)(=O)n2c(SCc3ccccc3)nc3ccccc32)cc1 [CBK293933] is ____.
Ans: 104

Q: Fill in the blank: the reported viability at 28.5 h, 10 µM of O=C1CCC(=O)N1CCn1c(=O)n(S(=O)(=O)c2ccc(-c3ccccc3)cc2)c2ccccc21 [CBK106494] is ____.
Ans: 112
